Target: T1, IGF-IIE (amino acids 1-104 of pro-IGF-II) (human, UniProt P01344 25-128)
T1 construct: Biotinylated in the selections; also called IGF-IIE (104aa)
T1 sequence (P01344 25-128): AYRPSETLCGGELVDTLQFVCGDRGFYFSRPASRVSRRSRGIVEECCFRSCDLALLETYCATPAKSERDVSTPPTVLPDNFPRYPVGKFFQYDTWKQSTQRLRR
Assay: competition SPR (BIACORE T100), affinity in solution, free ligand read on huIR-A ECD; measurement 1
Description: Competition SPR (BIACORE®) was performed under conditions of partially mass-transport limited conditions according to previously described methodology (Nieba et al., 1996). Approximately 16,700 relative response units (RU) of huIR-A (-exon11) ectodomain was coupled by standard amine chemistry to a BIACORE® CM5 chip sensor. Uncoated flow-cell surface was used as a reference. […] Regeneration of the surface was achieved by injection of 30 ul NaCltrate/NaCl pH 4.5. […]
ASSAY_ENDPOINT: pKd
Notebook: values listed as pKd are -log10 of the concentration (mol/L).

Looking up M0064-F02 Fab (Fab, V domains shown, soluble Fab (sFab); also the Fab crystallised with IGF-II; also called R0032-A11; 566A-M0064-F02) VH: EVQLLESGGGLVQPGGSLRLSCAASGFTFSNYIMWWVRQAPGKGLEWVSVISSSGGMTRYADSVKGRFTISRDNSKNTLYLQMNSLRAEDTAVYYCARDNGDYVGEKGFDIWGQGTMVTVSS VL: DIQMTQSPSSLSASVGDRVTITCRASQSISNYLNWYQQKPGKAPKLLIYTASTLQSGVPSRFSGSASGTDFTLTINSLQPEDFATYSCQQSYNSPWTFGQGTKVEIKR , I found its pKd recorded as 8.72
